IC50 overview
Tested on: H929 multiple myeloma tumour line
experimental_protocol: In vitro cytotoxicity, Microculture Tetrazolium Assay
Type: cell-based
assay_conditions: Homo sapiens, NCI-H929, 48 h, H929 cells, 48 hours exposure, MTT; read-out: IC50 (μM) MTT H929
property: IC50 (µM)

{"molecule": "Cc1cc(-c2nccc(COc3ccccc3CC(Oc3ncnc4sc(-c5ccc(F)cc5)c(-c5ccc(OCCN6CCN(C)CC6)c(Cl)c5C)c34)C(=O)O)n2)c(C)cn1 (stereo not drawn) [Example 731]", "unit_string": "µM", "recorded_result": 0.005}
{"molecule": "Cc1c(-c2c(-c3ccoc3)sc3ncnc(OC(Cc4ccccc4)C(=O)O)c23)ccc(OCCN2CCN(C)CC2)c1Cl (stereo not drawn) [Example 509]", "unit_string": "µM", "recorded_result": 1.46}
{"molecule": "COc1ccccc1CC(Oc1ncnc2sc(-c3ccc(F)c(Cl)c3)c(-c3ccc(OCCN4CCN(C)CC4)c(Cl)c3C)c12)C(=O)O (stereo not drawn) [Example 532]", "unit_string": "µM", "recorded_result": 0.323}
{"molecule": "COc1ccccc1CC(Oc1ncnc2sc(-c3ccco3)c(-c3ccc(OC4CN5CCC4CC5)c(Cl)c3C)c12)C(=O)O (single isomer, unassigned) [Example 307]", "unit_string": "µM", "recorded_result": 0.998}
{"molecule": "Cc1cc(COc2ccccc2CC(Oc2ncnc3sc(-c4ccc(F)cc4)c(-c4ccc(OCCN5CCN(C)CC5)c(Cl)c4C)c23)C(=O)O)ccn1 (stereo not drawn) [Example 16]", "unit_string": "µM", "recorded_result": 0.095}
{"molecule": "Cc1c(-c2c(-c3ccc(Cl)o3)sc3ncnc(OC(Cc4ccccc4OCc4ccnn4C)C(=O)O)c23)ccc(OCCN2CCN(C)CC2)c1Cl (stereo not drawn) [Example 371]", "unit_string": "µM", "recorded_result": 0.027}
{"molecule": "Cc1c(-c2c(-c3ccc(F)o3)sc3ncnc(OC(Cc4ccccc4OCc4cccc(C(F)(F)F)n4)C(=O)O)c23)ccc(OCCN2CCN(C)CC2)c1Cl (stereo not drawn) [Example 164]", "unit_string": "µM", "recorded_result": 0.046}
{"molecule": "CCCn1nccc1COc1ccccc1CC(Oc1ncnc2sc(-c3ccc(F)c(OC)c3)c(-c3ccc(OCCN4CCN(C)CC4)c(Cl)c3C)c12)C(=O)O (stereo not drawn) [Example 385]", "unit_string": "µM", "recorded_result": 0.048}
{"molecule": "CC#Cc1sc2ncnc(OC(Cc3ccccc3OC)C(=O)O)c2c1-c1ccc(OCCN2CCCC2)c(Cl)c1C (stereo not drawn) [Example 468]", "unit_string": "µM", "recorded_result": 2.02}
{"molecule": "COCC#Cc1ccccc1CC(Oc1ncnc2sc(-c3ccc(F)cc3)c(-c3ccc(OCCN4CCN(C)CC4)c(Cl)c3C)c12)C(=O)O (stereo not drawn) [Example 656]", "unit_string": "µM", "recorded_result": 0.523}
{"molecule": "COc1ccc(Cn2nccc2COc2ccccc2CC(Oc2ncnc3sc(-c4ccc(F)cc4)c(-c4ccc(OCCN5CCN(C)CC5)c(Cl)c4C)c23)C(=O)O)cc1 (stereo not drawn) [Example 79]", "unit_string": "µM", "recorded_result": 0.168}
{"molecule": "COc1ncc(COc2ccccc2CC(Oc2ncnc3sc(-c4ccco4)c(-c4ccc(OCCN5CCN(C)CC5)c(Cl)c4C)c23)C(=O)O)cn1 (stereo not drawn) [Example 274]", "unit_string": "µM", "recorded_result": 0.131}
{"molecule": "Cc1c(-c2c(-c3ccc(F)cc3)sc3ncnc(OC(Cc4ccccc4OCc4ccnc(-c5ccc(C(F)(F)F)nc5)n4)C(=O)O)c23)ccc(OCCN2CCN(C)CC2)c1Cl (stereo not drawn) [Example 109]", "unit_string": "µM", "recorded_result": 0.108}
{"molecule": "COc1ccccc1CC(Oc1ncnc2sc(-c3cccc(OCCN4CCOCC4)c3)c(-c3ccc(OCCN4CCN(C)CC4)c(Cl)c3C)c12)C(=O)O (stereo not drawn) [Example 588]", "unit_string": "µM", "recorded_result": 0.256}
{"molecule": "Cc1c(-c2c(-c3ccco3)sc3ncnc(OC(Cc4ccccc4OCc4cncnc4)C(=O)O)c23)ccc(OCCN2CCN(C)CC2)c1Cl (stereo not drawn) [Example 277]", "unit_string": "µM", "recorded_result": 0.07}
{"molecule": "Cc1c(-c2c(-c3ccc(F)cc3)sc3ncnc(OC(Cc4ccccc4OCc4cnccn4)C(=O)O)c23)ccc(OCC2CCCN2C)c1Cl (stereo not drawn) [Example 143]", "unit_string": "µM", "recorded_result": 1.61}
{"molecule": "CCCCOc1ccc(-c2c(CC)sc3ncnc(OC(Cc4ccccc4)C(=O)O)c23)c(C)c1Cl (stereo not drawn) [Example 398]", "unit_string": "µM", "recorded_result": 23.8}
{"molecule": "COCCNc1nccc(COc2ccccc2CC(Oc2ncnc3sc(-c4ccc(F)cc4)c(-c4ccc(OCCN5CCN(C)CC5)c(Cl)c4C)c23)C(=O)O)n1 (stereo not drawn) [Example 53]", "unit_string": "µM", "recorded_result": 0.015}
{"molecule": "COc1ccccc1CC(Oc1ncnc2sc(-c3cccc(C)c3)c(-c3ccc(OCCN4CCN(C)CC4)c(Cl)c3C)c12)C(=O)O (stereo not drawn) [Example 546]", "unit_string": "µM", "recorded_result": 0.416}
{"molecule": "Cc1c(-c2c(-c3ccc(F)cc3)sc3ncnc(OC(Cc4ccccc4OCc4ccncn4)C(=O)O)c23)ccc(OCCN2CCN(C)CC2)c1Cl (stereo not drawn) [Example 68]", "unit_string": "µM", "recorded_result": 0.035}
{"molecule": "COCCn1nccc1COc1ccccc1CC(Oc1ncnc2sc(-c3ccc(F)cc3)c(-c3ccc(OCCN4CCN(C)CC4)c(Cl)c3C)c12)C(=O)O (stereo not drawn) [Example 88]", "unit_string": "µM", "recorded_result": 0.062}
{"molecule": "COc1cccc(-c2sc3ncnc(OC(Cc4ccccc4OC)C(=O)O)c3c2-c2ccc(OCCN3CCN(C)CC3)c(Cl)c2C)c1 (stereo not drawn) [Example 554]", "unit_string": "µM", "recorded_result": 0.177}
{"molecule": "Cc1cncc(-c2nccc(COc3ccccc3CC(Oc3ncnc4sc(-c5ccc(F)cc5)c(-c5ccc(OCCN6CCN(C)CC6)c(Cl)c5C)c34)C(=O)O)n2)c1 (stereo not drawn) [Example 122]", "unit_string": "µM", "recorded_result": 0.01}
{"molecule": "CCc1sc2ncnc(OC(Cc3ccccc3)C(=O)O)c2c1-c1ccc(OCCN2CCOCC2)c(Cl)c1C (stereo not drawn) [Example 420]", "unit_string": "µM", "recorded_result": 15.6}

====

IC50 overview
target_under_test: Mcl-1 protein (UniProtKB primary accession number: Q07820) (Homo sapiens, UniProt Q07820)
Sequence (Q07820 whole entry): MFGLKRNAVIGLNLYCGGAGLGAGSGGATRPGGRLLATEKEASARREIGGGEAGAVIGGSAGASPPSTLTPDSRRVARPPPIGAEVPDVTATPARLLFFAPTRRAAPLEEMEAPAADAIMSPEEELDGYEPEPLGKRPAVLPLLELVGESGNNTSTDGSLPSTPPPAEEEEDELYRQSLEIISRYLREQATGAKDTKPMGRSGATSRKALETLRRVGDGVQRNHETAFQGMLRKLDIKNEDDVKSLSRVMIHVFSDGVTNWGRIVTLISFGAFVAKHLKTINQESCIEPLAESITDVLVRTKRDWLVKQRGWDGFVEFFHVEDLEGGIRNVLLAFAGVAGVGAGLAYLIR
experimental_protocol: Inhibition of Mcl-1 by fluorescence polarisation, Method 1
Format: binding
assay_conditions: fluorescence polarisation; Method 1, or Method 2; read-out: IC50 (M) Mcl-1 FP
property: IC50 (M)

{"compound": "COCCCc1ccccc1CC(Oc1ncnc2sc(-c3ccc(F)cc3)c(-c3ccc(OCCN4CCN(C)CC4)c(Cl)c3C)c12)C(=O)O (stereo not shown)", "recorded_result": "2.6e-08"}
{"compound": "COc1ccccc1CC(Oc1ncnc2sc(-c3ccc(F)c(F)c3F)c(-c3ccc(OCCN4CCN(C)CC4)c(Cl)c3C)c12)C(=O)O (stereo not shown)", "recorded_result": "4.3e-08"}
{"compound": "COc1cc(F)ccc1CC(Oc1ncnc2sc(-c3ccc(F)o3)c(-c3ccc(OCCN4CCN(C)CC4)c(Cl)c3C)c12)C(=O)O (stereo not shown)", "recorded_result": "1e-08"}
{"compound": "COc1ccccc1CC(Oc1ncnc2sc(-c3cccc(C#N)c3)c(-c3ccc(OCCN4CCN(C)CC4)c(Cl)c3C)c12)C(=O)O (stereo not shown)", "recorded_result": "1.8e-08"}
{"compound": "COc1nccc(COc2ccccc2CC(Oc2ncnc3sc(-c4ccc(F)c(OCCO)c4)c(-c4ccc(OCCN5CCN(C)CC5)c(Cl)c4C)c23)C(=O)O)n1 (stereo not shown)", "recorded_result": "6.2e-09"}
{"compound": "COc1ccccc1-c1nccc(COc2ccccc2CC(Oc2ncnc3sc(C#CCOc4ccccc4)c(-c4ccc(OCCN5CCN(C)CC5)c(Cl)c4C)c23)C(=O)O)n1 (stereo not shown)", "recorded_result": "1.68e-09"}
{"compound": "Cc1c(-c2c(-c3ccsc3)sc3ncnc(OC(Cc4ccccc4)C(=O)O)c23)ccc(OCCN2CCN(C)CC2)c1Cl (stereo not shown)", "recorded_result": "3.9e-08"}

====

target_under_test: Mcl-1 protein (UniProtKB primary accession number: Q07820) (Homo sapiens, UniProt Q07820)
experimental_protocol: Inhibition of Mcl-1 by fluorescence polarisation, Method 1
Format: binding
assay_conditions: fluorescence polarisation test; Method 1, or Method 2 where the value is underlined (underlining not visible); read-out: IC50 (M) Mcl-1 FP
IC50 overview

{"compound": "Cc1c(-c2c(-c3ccc(F)cc3)sc3ncnc(OC(Cc4ccccc4OCc4ccnc(-c5ccccc5CO)n4)C(=O)O)c23)ccc(OCCN(C)C)c1Cl (stereo not drawn) [Example 832]", "unit_string": "M", "IC50": "3.15e-09"}
{"compound": "CCOC(=O)C(Cc1ccccc1OCc1ccnc(-c2ccccc2OC)n1)Oc1ncnc2sc(-c3ccc(F)cc3)c(-c3ccc(OCCN4CCNCC4)c(Cl)c3C)c12 (stereo not drawn) [Example 795]", "unit_string": "M", "IC50": "8.5e-07"}
{"compound": "COc1ccccc1-c1nccc(COc2ccccc2CC(Oc2ncnc3sc(-c4ccc(F)cc4)c(-c4ccc(OCCN5CC6(CN(C)C6)C5)c(Cl)c4C)c23)C(=O)O)n1 (stereo not drawn) [Example 833]", "unit_string": "M", "IC50": "3.35e-09"}
{"compound": "CCN(C)CCOc1ccc(-c2c(-c3ccc(F)cc3)sc3ncnc(OC(Cc4ccccc4OCc4ccnc(-c5ccccc5F)n4)C(=O)OCCOC)c23)c(C)c1Cl (stereo not drawn) [Example 803]", "unit_string": "M", "IC50": "3.14e-06"}
{"compound": "CCOC(=O)C(Cc1ccccc1OCc1ccnc(-c2ccccc2CO)n1)Oc1ncnc2sc(-c3ccc(F)cc3)c(-c3ccc(OCCN4CCN(C)CC4)c(Cl)c3C)c12 (stereo not drawn) [Example 856]", "unit_string": "M", "IC50": "9.79e-07"}
{"compound": "[2H]C([2H])([2H])Oc1ccccc1-c1nccc(COc2ccccc2CC(Oc2ncnc3sc(-c4ccc(F)cc4)c(-c4ccc(OCCN5CCN(C)CC5)c(Cl)c4C)c23)C(=O)OCC)n1 (stereo not drawn) [Example 839]", "unit_string": "M", "IC50": "6.91e-07"}
